From: PubChem BioAssay AID1845216

Catalogue of viability, T/C readings, one per entry.
tested on: SW 982 tumor spheroid viability; experiment: Anticancer human tumor SW 982 cell line growth inhibition; conditions: second compound 1 µM; first compound 0.1 µM; stronger effect = lower value; spheroids with HUVEC and MSC;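 also: spheroids exposed to compound for 7 days before readout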
Express your answer in %, writing the number without its unit.

See these solved cases before continuing.
>>> df
                                   compound  property_label  numeric_readout
0  [2H]c1nc(C)nc([2H])c1-c1cc(NC[C@@H](C)c2cccc3c(C(=O)NC)ccnc23)ncn1 + Cn1nnc2c(C(N)=O)ncn2c1=O  viability, T/C              102
1  COc1ccc([C@@H](O)c2cc(-c3ncnc4cc(N5CCOCC5)ccc34)c(F)cc2Cl)nn1 + Cn1nnc2c(C(N)=O)ncn2c1=O  viability, T/C             95.4
2  CC(C)n1c(=O)n(C)c2cnc3cc(F)c(-c4ccc(OCCCN5CCCCC5)nc4)cc3c21 + Cn1nnc2c(C(N)=O)ncn2c1=O  viability, T/C             91.3
3  Cc1cc(C)c(CNC(=O)c2cc(-c3ccc(CN4CCOCC4)cc3)cc3c2cnn3C2CCCC2)c(=O)[nH]1 + Cn1nnc2c(C(N)=O)ncn2c1=O  viability, T/C              104
4  COc1cc(C)[nH]c(=O)c1CN1CCc2c(Cl)cc(C(OC)C3COC3)c(Cl)c2C1=O (stereo unspecified) + Cn1nnc2c(C(N)=O)ncn2c1=O  viability, T/C              103

From here, focus on the item given below.
The compound listed as CC1COCCN1c1cc(-c2ccnn2C)c2ccnc(-c3ccn[nH]3)c2n1 (stereo unspecified) + Cn1nnc2c(C(N)=O)ncn2c1=O has a reported viability, T/C of 20.4

---

Catalogue of IC50 readings, one per entry.
tested on: SW 982 tumor spheroid viability; test: Anticancer human tumor SW 982 cell line growth inhibition; settings: curve of first compound; second compound 1 µM; spheroids with HUVEC and MSC;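 also: spheroids exposed to compound for 7 days before readout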

See these solved cases before continuing.
>>> print(df.to_string())
                                   compound   result
0  CC(C)n1c(=O)n(C)c2cnc3cc(F)c(-c4ccc(OCCCN5CCCCC5)nc4)cc3c21 + Cn1nnc2c(C(N)=O)ncn2c1=O  > 10 µM
1  [2H]c1nc(C)nc([2H])c1-c1cc(NC[C@@H](C)c2cccc3c(C(=O)NC)ccnc23)ncn1 + Cn1nnc2c(C(N)=O)ncn2c1=O  > 10 µM
2  COc1cc(C)[nH]c(=O)c1CN1CCc2c(Cl)cc(C(OC)C3COC3)c(Cl)c2C1=O (stereo unspecified) + Cn1nnc2c(C(N)=O)ncn2c1=O  > 10 µM

The compound listed as Cn1ncnc1[C@H]1c2n[nH]c(=O)c3cc(F)cc(c23)N[C@@H]1c1ccc(F)cc1 + Cn1nnc2c(C(N)=O)ncn2c1=O has a reported IC50 of > 3 µM

The compound listed as CC1COCCN1c1cc(-c2ccnn2C)c2ccnc(-c3ccn[nH]3)c2n1 (stereo unspecified) + Cn1nnc2c(C(N)=O)ncn2c1=O has a reported IC50 of < 0.0316 µM

The compound listed as Cc1cc(C)c(CNC(=O)c2cc(-c3ccc(CN4CCOCC4)cc3)cc3c2cnn3C2CCCC2)c(=O)[nH]1 + Cn1nnc2c(C(N)=O)ncn2c1=O has a reported IC50 of > 10 µM
